molecular target: Platelet-activating factor receptor (Cavia porcellus); assay: Ability to prevent PAF-induced bronchoconstriction in guinea pig when administered intravenously; format: functional
PROPERTY NAME: log10 ID50 (log10 of the value in mg/kg)
Lab note - ID50 converted to log10 from values in mg/kg.

[ask] Looking for the measured log10 ID50 of "COc1ccc(C(=C/C=C/C(=O)N[C@H](C)CCCc2cccnc2)c2ccc(OC)c(OC)c2)cc1OC" , can you help?
[reply] -0.85

[ask] Looking for the measured log10 ID50 of "COc1ccc(/C(=C/C=C/C(=O)N[C@H](C)CCCc2cccnc2)c2ccccc2)cc1" , can you help?
[reply] -0.80

[ask] Looking for the measured log10 ID50 of "CCCCCC(=C/C=C/C(=O)N[C@H](C)CCCc1cccnc1)CCCCC" , can you help?
[reply] -0.19

[ask] Looking for the measured log10 ID50 of "O=C(C=C(c1ccccc1)c1ccccc1)NCCCCc1cccnc1" , can you help?
[reply] -0.24

[ask] Looking for the measured log10 ID50 of "CCC/C(=C\C=C\C(=O)N[C@H](C)CCCc1cccnc1)c1ccc(OC)cc1" , can you help?
[reply] -0.28

[ask] Looking for the measured log10 ID50 of "COc1ccc(C(=C/C=C/C(=O)N[C@@H](CCCc2cccnc2)C2CC2)c2ccc(OC)cc2)cc1" , can you help?
[reply] -0.70

[ask] Looking for the measured log10 ID50 of "COc1cccc(C(=C/C=C/C(=O)N[C@H](C)CCCc2cccnc2)c2cccc(OC)c2)c1" , can you help?
[reply] -0.68

[ask] Looking for the measured log10 ID50 of "COc1cccc(/C(=C\C=C\C(=O)NCCCCc2cccnc2)c2cccc(F)c2)c1" , can you help?
[reply] -0.34

[ask] Looking for the measured log10 ID50 of "O=C(/C=C/C=C(c1cccc([N+](=O)[O-])c1)c1cccc([N+](=O)[O-])c1)NCCCCc1cccnc1" , can you help?
[reply] -0.59

[ask] Looking for the measured log10 ID50 of "CC/C(=C\C=C\C(=O)N[C@H](C)CCCc1cccnc1)c1ccc(OC)cc1" , can you help?
[reply] -0.17

[ask] Looking for the measured log10 ID50 of "COc1ccc(C(=C/C=C/C(=O)NCCCCc2cccnc2)c2ccc(OC)c(OC)c2)cc1OC" , can you help?
[reply] -0.27

[ask] Looking for the measured log10 ID50 of COc1ccc(C(=C/C=C/C(=O)NC(C)CCCc2cccnc2C)c2ccc(OC)cc2)cc1 (stereo not given) , can you help?
[reply] 0.04

[ask] Looking for the measured log10 ID50 of "CC[C@H](CCCc1cccnc1)NC(=O)/C=C/C=C(c1ccc(OC)cc1)c1ccc(OC)cc1" , can you help?
[reply] -0.80

[ask] Looking for the measured log10 ID50 of "O=C(/C=C/C=C(c1cccc(Cl)c1)c1cccc(Cl)c1)NCCCCc1cccnc1" , can you help?
[reply] -0.33

[ask] Looking for the measured log10 ID50 of "O=C(/C=C/C=C(c1ccc(Cl)cc1)c1ccc(Cl)cc1)NCCCCc1cccnc1" , can you help?
[reply] -0.74

[ask] Looking for the measured log10 ID50 of "COc1ccc(/C(=C/C=C/C(=O)N[C@H](C)CCCc2cccnc2)C(C)C)cc1" , can you help?
[reply] -0.39

[ask] Looking for the measured log10 ID50 of "C[C@H](CCCc1cccnc1)NC(=O)/C=C/C=C(c1ccc(F)cc1)c1ccc(F)cc1" , can you help?
[reply] -0.51

[ask] Looking for the measured log10 ID50 of "O=C(/C=C/C=C(c1cccc(F)c1)c1cccc(F)c1)NCCCCc1cccnc1" , can you help?
[reply] -0.47

[ask] Looking for the measured log10 ID50 of "CCCCC/C(=C\C=C\C(=O)N[C@H](C)CCCc1cccnc1)c1ccc(OC)cc1" , can you help?
[reply] -1.30

[ask] Looking for the measured log10 ID50 of "O=C(/C=C/C=C(c1ccc(F)cc1)c1ccc(F)cc1)NCCCCc1cccnc1" , can you help?
[reply] -0.42

###

For each entry below, report its inhibition in vivo at 1 mg/kg value.
test system: Cavia porcellus; experiment: Ability to prevent PAF-induced bronchoconstriction in guinea pig when administered at a dose of 1 mg/kg intravenously; format: functional; settings: route intravenous
Respond with a number, then the unit of measure.

[ask] Notebook: pull reported inhibition in vivo at 1 mg/kg for Cavia porcellus, entry "O=C(/C=C/C=C(c1ccc(F)cc1)c1ccc(F)cc1)NCCCCc1cccnc1"
[reply] 91%

[ask] Notebook: pull reported inhibition in vivo at 1 mg/kg for Cavia porcellus, entry "COc1ccc(/C(=C/C=C/C(=O)N[C@H](C)CCCc2cccnc2)C(C)C)cc1"
[reply] 89%

[ask] Notebook: pull reported inhibition in vivo at 1 mg/kg for Cavia porcellus, entry "COc1ccc(/C(=C/C=C/C(=O)N[C@H](C)CCCc2cccnc2)C2CCCCC2)cc1"
[reply] 73%

[ask] Notebook: pull reported inhibition in vivo at 1 mg/kg for Cavia porcellus, entry "O=C(/C=C/C=C(c1cccc(Cl)c1)c1cccc(Cl)c1)NCCCCc1cccnc1"
[reply] 76%

[ask] Notebook: pull reported inhibition in vivo at 1 mg/kg for Cavia porcellus, entry "COc1ccc(/C(=C/C=C/C(=O)N[C@H](C)CCCc2cccnc2)c2ccccc2)cc1"
[reply] 89%

[ask] Notebook: pull reported inhibition in vivo at 1 mg/kg for Cavia porcellus, entry "COc1ccc(C(=C/C=C/C(=O)N[C@@H](C)CCCc2cccnc2)c2ccc(OC)cc2)cc1"
[reply] 59%
